assay: in vitro; settings: male, mouse, s9
TEST_READOUT: half-life at 2 μM (days)
Response body: numeric value in days, unit text excluded.

The compound O=S(=O)(c1c(F)c(F)c(F)c(F)c1F)N(Cc1ccc(F)cc1)C1CC1 [Compound I-1] showed half-life at 2 μM equal to 9.66

###

test system: MV4-11; assay: CellTiter-Blue cell viability, MV4-11; type: cell-based; conditions: Homo sapiens, MV4-11; AML cell line, 72 hours
TEST_READOUT: pIC50
Convention used: pIC50 is expressed as -log10 of the molar concentration.

Field pIC50 (entry O=S(=O)(NC1(c2ccccc2)CC1)c1c(F)c(F)c(F)c(F)c1F [Comparative Example 7, reference compound] ) reads 4.51

Value of measured pIC50 for the entry O=S(=O)(NCc1ccc(F)cc1)c1c(F)c(F)c(F)c(F)c1F [Comparative Example 4, reference compound] : 5.51

Record summary for O=S(=O)(c1c(F)c(F)c(F)c(F)c1F)N(C1CC1)C(c1ccc(F)cc1)C(F)(F)F (centres unmarked) : reported pIC50 = 6.01

Lab book: pIC50 of "CC(C)(C)C(=O)N(Cc1ccc(F)cc1)S(=O)(=O)c1c(F)c(F)c(F)c(F)c1F" noted as 6.15

Noted for "O=S(=O)(c1c(F)c(F)c(F)c(F)c1F)N(Cc1ccncc1)Cc1ccc(F)cc1" : its pIC50 reads 5.39
